Source listed as ChEMBL document CHEMBL3232748.

- tested target: Delta-type opioid receptor (Homo sapiens)
- assay name: Agonist activity at human delta opioid receptor expressed CHO cells assessed as inhibition of [35S]-GTP[gammaS] binding at 10 uM
- Format: functional, cell-based
Activity calls are given as the source filed them. The rule behind the calls is not given here.
observation type: Activity

Answered examples (4):
[[record]]
chem_smiles = "CN1CCN(c2cccc(O)c2)CC1"
measured_result = "inactive"

[[record]]
chem_smiles = "C[C@H]1CN(C)CC[C@@]1(C)c1cccc(O)c1"
measured_result = "inactive"

[[record]]
chem_smiles = "Oc1cccc(N2CCN(CCCc3ccccc3)CC2)c1"
measured_result = "inactive"

[[record]]
chem_smiles = "CN1CCC(c2cccc(O)c2)CC1"
measured_result = "inactive"


Activity reported for this molecule C[C@H]1CN(CCCc2ccccc2)CCN1c1cccc(O)c1 : inactive

Activity recorded for this molecule, C[C@H]1CN(C)CCN1c1cccc(O)c1 , is inactive
